// data source = patent US5962469A

assay: Inhibition of lipid peroxidation (soybean phosphatidylcholine liposomes); type: biochemical; conditions: Fe2+-initiated, 37° C., 15 min time point, TBARS, read-out: LIPID OX (IC50)
result type: IC50 (µM)
Answers are plain numbers, in µM.

CC1(C)Cc2ccsc2C=[N+]1[O-] = 1720
CC1(C)Cc2ccoc2C=[N+]1[O-] = 1070
CC1(C)Cc2c(ccc3ccccc23)C=[N+]1[O-] = 100
CC1(C)Cc2ccccc2C=[N+]1[O-] = 1670
CC1(C)Cc2sccc2C=[N+]1[O-] = 1590

[Q] What value of measured IC50 is listed for CC1(C)Cc2ccc3ccccc3c2C=[N+]1[O-] ?
[A] 69

====

system: Cerebellar Granule Cells; test: Protection of cerebellar granule cells against Fe2+-induced damage (viability, MTT); format: cell-based; details: Rattus norvegicus, read-out: Viability IC50
result type: IC50 (µM)
Answers are plain numbers, in µM.

[Q] What value of measured IC50 is listed for CC(C)(C)[N+]([O-])=Cc1ccccc1 ?
[A] 2600
